All values here come from paper PMC3500388.

- System Under Test: full-length human ERα (Homo sapiens)
- Assay Name: Luciferase reporter gene assay in HepG2 cells, ERα, antagonist mode
- Condition Context: read-out: Antagonist mode ERα IC50, in the presence of 10^−8 M E2
Observation Type: IC50 (nM)
Field format: number, assumed nM, no unit text.

The measured IC50 associated with CN(c1ccccc1)S(=O)(=O)C1CC2OC1C(c1ccc(O)cc1)=C2c1ccc(O)cc1 (stereo not shown) [Compound 11e] reads 740

* * *

- System Under Test: UniProt:Q92731
- Sequence (Q92731 whole entry): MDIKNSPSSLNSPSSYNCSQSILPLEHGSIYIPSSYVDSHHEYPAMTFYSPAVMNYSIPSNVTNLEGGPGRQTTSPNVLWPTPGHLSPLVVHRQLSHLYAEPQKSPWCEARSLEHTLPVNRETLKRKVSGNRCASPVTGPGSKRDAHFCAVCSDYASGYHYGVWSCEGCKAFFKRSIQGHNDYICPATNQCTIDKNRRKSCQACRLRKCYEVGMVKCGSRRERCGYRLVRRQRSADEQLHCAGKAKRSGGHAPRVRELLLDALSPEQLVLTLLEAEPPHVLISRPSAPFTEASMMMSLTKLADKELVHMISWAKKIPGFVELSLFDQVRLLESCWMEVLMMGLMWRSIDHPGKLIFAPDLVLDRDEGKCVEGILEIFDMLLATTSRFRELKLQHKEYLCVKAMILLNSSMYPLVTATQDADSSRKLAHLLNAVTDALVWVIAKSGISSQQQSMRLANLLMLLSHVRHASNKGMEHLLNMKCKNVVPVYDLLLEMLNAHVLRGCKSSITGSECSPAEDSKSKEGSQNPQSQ
- Assay Name: Luciferase reporter gene assay in HepG2 cells, ERβ, antagonist mode
- Condition Context: read-out: Antagonist mode ERβ IC50; HepG2 cells; in the presence of 10^−8 M E2
Observation Type: IC50

The measured IC50 associated with CN(c1ccccc1)S(=O)(=O)C1CC2OC1C(c1ccc(O)cc1)=C2c1ccc(O)cc1 (stereo not shown) [Compound 11e] reads 0.01 µM

* * *

- System Under Test: full-length human ERα (Homo sapiens, UniProt P03372)
- Sequence (P03372 whole entry): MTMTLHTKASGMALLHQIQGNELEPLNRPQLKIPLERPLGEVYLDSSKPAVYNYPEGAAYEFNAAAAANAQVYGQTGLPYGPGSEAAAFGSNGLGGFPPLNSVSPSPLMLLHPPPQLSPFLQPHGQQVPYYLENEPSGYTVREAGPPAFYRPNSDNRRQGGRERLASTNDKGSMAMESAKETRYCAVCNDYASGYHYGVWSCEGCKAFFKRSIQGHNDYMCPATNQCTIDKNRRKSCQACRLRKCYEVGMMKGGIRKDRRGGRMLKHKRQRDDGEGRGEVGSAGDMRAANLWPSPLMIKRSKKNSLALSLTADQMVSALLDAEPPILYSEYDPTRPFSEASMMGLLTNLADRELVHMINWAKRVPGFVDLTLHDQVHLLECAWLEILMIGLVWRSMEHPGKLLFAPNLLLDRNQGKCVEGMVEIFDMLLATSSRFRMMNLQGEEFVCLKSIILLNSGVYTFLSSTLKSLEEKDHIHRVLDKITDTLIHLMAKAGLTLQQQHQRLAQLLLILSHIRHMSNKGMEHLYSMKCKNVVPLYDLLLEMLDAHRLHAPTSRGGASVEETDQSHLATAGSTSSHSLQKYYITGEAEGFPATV
- Assay Name: Luciferase reporter gene assay in HepG2 cells, ERα, agonist mode
- Condition Context: HepG2 cells; mean ± s.e.m. as percentage of 10^−7 M E2
In plain terms, low Agonist mode ERα Eff (%E2), meaning strictly below 30 %E2, gives yes, and everything else gives no.

Use the examples below as a reference point.
Compound	Assigned Category
O=S(=O)(Nc1ccc(Cl)cc1)C1CC2OC1C(c1ccc(O)cc1)=C2c1ccc(O)cc1 (stereo not shown) [Compound 11d]	no
CCN(c1ccccc1Cl)S(=O)(=O)C1CC2OC1C(c1ccc(O)cc1)=C2c1ccc(O)cc1 (stereo not shown) [Compound 11k]	yes
C[C@]12CC[C@@H]3c4ccc(O)cc4C[C@@H](CCCCCCCCC[S+]([O-])CCCC(F)(F)C(F)(F)F)[C@H]3[C@@H]1CC[C@@H]2O (stereo partly shown) [Fulvestrant, fulvestrant, reference compound]	yes

IN: Threshold test, Agonist mode ERα Eff (%E2) < 30 %E2: O=S(=O)(Nc1ccccc1)C1CC2OC1C(c1ccc(O)cc1)=C2c1ccc(O)cc1 (stereo not shown) [Compound 11a]
OUT: no

IN: Threshold test, Agonist mode ERα Eff (%E2) < 30 %E2: CN(c1ccccc1Cl)S(=O)(=O)C1CC2OC1C(c1ccc(O)cc1)=C2c1ccc(O)cc1 (stereo not shown) [Compound 11g]
OUT: no

IN: Threshold test, Agonist mode ERα Eff (%E2) < 30 %E2: CN(c1ccccc1)S(=O)(=O)C1CC2OC1C(c1ccc(O)cc1)=C2c1ccc(O)cc1 (stereo not shown) [Compound 11e]
OUT: no

IN: Threshold test, Agonist mode ERα Eff (%E2) < 30 %E2: O=S(=O)(C1CC2OC1C(c1ccc(O)cc1)=C2c1ccc(O)cc1)N(CC(F)(F)F)c1ccc(Cl)cc1 (stereo not shown) [Compound 11o]
OUT: yes

* * *

- System Under Test: full-length human ERα (Homo sapiens, UniProt P03372)
- Assay Name: Luciferase reporter gene assay in HepG2 cells, ERα, agonist mode
Observation Type: EC50 (nM)
Field format: number, assumed nM, no unit text.

Molecule	Unit Name	Result Value
CN(c1ccccc1Cl)S(=O)(=O)C1CC2OC1C(c1ccc(O)cc1)=C2c1ccc(O)cc1 (stereo not drawn) [Compound 11g]	nM	8
O=S(=O)(Nc1ccccc1)C1CC2OC1C(c1ccc(O)cc1)=C2c1ccc(O)cc1 (stereo not drawn) [Compound 11a]	nM	100

Now turn to the next molecule.
The measured EC50 associated with O=S(=O)(Nc1ccccc1Cl)C1CC2OC1C(c1ccc(O)cc1)=C2c1ccc(O)cc1 (stereo not drawn) [Compound 11c] reads 200
